# Test summary: chemical genetic growth profiling, strain panel (AID 1159580);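 note: tested at 20 µM; growth read once vehicle control cultures reached saturation at 30 °C; 1 = growth at the plate median or of vehicle wells; lower values mean less growth of the strain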
# Condition details: S. cerevisiae deletion strains, growth OD, locus YDR001C, strain nth1, stronger effect = lower value
Screen size: about 5,500 compounds; about 2,000 (36%) were called active. Another 18% or so got no clear call; they are omitted. The list shows a part of the results.
Parameter normalized growth: see the listing below.
Reply with the value as a number alone.

Here are 2 molecules together with their reported answers.
Molecule	Measured endpoint	Recorded result
CC(C)(O)CC[C@@H](O)[C@](C)(O)C1CC[C@@]2(O)C3=CC(=O)C4C[C@@H](O)[C@@H](O)C[C@]4(C)C3CC[C@]12C (some centres undefined)	normalized growth	1
CC(=O)Oc1ccc2c(c1)CCC1C2CCC2(C)C1CC(OC(C)=O)C2OC(C)=O (centres undefined)	normalized growth	1.01

# lookup: normalized growth of CC(=O)O[C@H]1CC2CCC3C(CC[C@@]4(C)C3C[C@H]([N+]3(C)CCCCC3)[C@@H]4OC(C)=O)[C@@]2(C)C[C@@H]1[N+]1(C)CCCCC1 (some centres undefined) 1.01

Queued: C[C@]12C=CC(=O)C=C1CCC1C2C(=O)C[C@@]2(C)C1CC[C@]2(O)C(=O)CO (some centres undefined) 1
